Let's go through some IC50 measurements on Histone deacetylase 8 (Homo sapiens) together.
Sequence (Q9BY41 whole entry): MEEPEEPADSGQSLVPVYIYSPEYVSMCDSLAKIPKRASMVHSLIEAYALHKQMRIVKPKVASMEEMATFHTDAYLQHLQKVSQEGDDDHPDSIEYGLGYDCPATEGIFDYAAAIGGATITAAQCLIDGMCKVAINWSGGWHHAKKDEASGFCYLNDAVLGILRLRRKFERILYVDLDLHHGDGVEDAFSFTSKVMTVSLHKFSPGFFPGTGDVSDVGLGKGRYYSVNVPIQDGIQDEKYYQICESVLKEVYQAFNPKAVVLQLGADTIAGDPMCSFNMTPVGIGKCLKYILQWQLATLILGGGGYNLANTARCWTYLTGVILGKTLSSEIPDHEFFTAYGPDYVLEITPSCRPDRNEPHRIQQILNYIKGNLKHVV

Incoming: Returns the measured IC50 for the input molecule. Input: "C=Cc1ccccn1"
Outgoing: > 50 µM

Incoming: Okay, and N#Cc1ccncc1 [ISONICOTINONITRILE] ?
Outgoing: > 50 µM

Incoming: Follow-up entry: "Brc1cn[nH]c1"
Outgoing: > 50 µM

All values here come from ChEMBL document CHEMBL5344431.
